Values compiled from paper PMC4201343.

- system-name: E. coli SSB (Escherichia coli, UniProt P0AGE0)
- Sequence (P0AGE0 2-178 limits assumed): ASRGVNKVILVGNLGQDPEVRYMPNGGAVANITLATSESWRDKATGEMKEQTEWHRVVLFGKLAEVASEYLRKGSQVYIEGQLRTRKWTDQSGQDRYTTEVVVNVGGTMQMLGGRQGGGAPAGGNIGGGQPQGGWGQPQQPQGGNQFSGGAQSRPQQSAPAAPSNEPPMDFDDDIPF
- test-description: FP-based binding assay with SSB in place of NS3h
- condition-description: 100 μM of each compound
measurement-label: SSB (% I): percent inhibition of SSB binding to Cy5-dT15

{"molecule": "CS(=O)(=O)Nc1ccc(Cc2noc(-c3ccc4[nH]cc(CCN)c4c3)n2)cc1.O", "result": "37%"}
{"molecule": "C=CC1=C(C(=O)O)N2C(=O)[C@@H](NC(=O)C(=NOCC(=O)O)c3csc(N)n3)[C@H]2SC1.O", "result": "95%"}
{"molecule": "C=CC1=C(C(=O)O)N2C(=O)[C@@H](NC(=O)C(=NO)c3csc(N)n3)[C@H]2SC1", "result": "96%"}
{"molecule": "Cl.NC1CCN(c2cccc(Cl)n2)CC1 [SR 57227A]", "result": "133%"}
{"molecule": "CC(O)CO.N[C@@H](C(=O)N[C@@H]1C(=O)N2C(C(=O)O)=C(CSc3cn[nH]n3)CS[C@H]12)c1ccc(O)cc1", "result": "56%"}
